Values compiled from patent US11040963B2.

- TARGET OF ASSAY: HA H1 A/California/07/09 (Influenza A virus (A/California/07/2009(H1N1)), UniProt C3W5X2)
- ASSAY DETAILS: biochemical
- CONDITIONS USED: Competition binding (AlphaLISA), pIC50 H1 A/California/07/09
ASSAY METRIC: log10 IC50 (log10 of the value in nM)
Form field - Quantity: IC50; Unit: nM; Scale: log10

Cc1nnc([C@@H](c2ccccc2)N2CCN(C(=O)c3cccc(-c4nc5cc(C(F)(F)F)ccc5o4)c3)CC2)o1 [Example 27] has a reported log10 IC50 of 1.50

Cc1coc(C(c2ccccc2)N2CCN(C(=O)c3cc(-c4nc5cc(OC(F)(F)F)ccc5o4)ccn3)CC2)n1 (stereo not shown) has a reported log10 IC50 of 1.60

COc1ccc2nc(-c3cccc(C(=O)N4CCN(C(c5ccccc5)c5ccc[nH]c5=O)CC4)c3)sc2c1 (stereo not shown) has a reported log10 IC50 of 2.70

COc1ccc2nc(-c3cccc(C(=O)N4CCN(C(C(=O)NCCN)c5ccccc5)CC4)c3)sc2c1 (stereo not shown) has a reported log10 IC50 of 1.90

COc1ccc2nc(-c3cccc(C(=O)N4CCN([C@H](c5ccccc5)c5nnn(C)n5)CC4)c3)sc2c1 has a reported log10 IC50 of 1.90

O=C(c1cccc(-c2nc3cc(C(F)(F)F)ccc3o2)c1)N1CCN(C(c2ccccc2)c2nnc(C3CC3)o2)CC1 (stereo not shown) has a reported log10 IC50 of 1.90

COc1ccc2nc(-c3cccc(C(=O)N4CCN([C@@H](c5ccccc5)c5nnc(C)o5)CC4)c3)sc2c1 has a reported log10 IC50 of 1.80

---

Assignment: determine reported pIC50 for the given compounds.
- TARGET OF ASSAY: HA H1 A/New Caledonia/20/99 (Influenza A virus (A/New Caledonia/20/1999(H1N1)), UniProt Q6WG00)
- ASSAY DETAILS: biochemical
- CONDITIONS USED: Competition binding (AlphaLISA), pIC50 H1 A/New Caledonia/20/99
// pIC50 here means minus log10 of the molar concentration (mol/L)

COC(=O)C(c1ccccc1)N1CCCN(C(=O)c2cccc(-c3nc4ccc(OC)cc4s3)c2)CC1 (stereo not drawn) has a reported pIC50 of 6.20

COC(=O)C(c1ccccc1)N1CCN(C(=O)c2cccc(-c3nc4cc(NC(C)=O)ccc4o3)c2)CC1 (stereo not drawn) has a reported pIC50 of 8.50

COc1ccc2oc(-c3ccnc(C(=O)N4CCN(C(c5ccccc5)c5nnc(C)o5)CC4)c3)nc2c1 (stereo not drawn) has a reported pIC50 of 7.60

O=C(c1cccc(-c2nc3cc(C(F)(F)F)ccc3o2)c1)N1CCN(C(c2ccccc2)c2nnc(C3CC3)o2)CC1 (stereo not drawn) has a reported pIC50 of 6.60

COC(=O)[C@@H](c1ccccc1)N1CCN(C(=O)c2cccc(-c3nc4ccc(OC)cc4s3)c2)CC1 [Example 19] has a reported pIC50 of 7.80

COc1ccc2nc(-c3cccc(C(=O)N4CCN(C(Cc5nnco5)c5ccccc5)CC4)c3)sc2c1 (stereo not drawn) has a reported pIC50 of 6.30

COC(=O)C(c1ccccc1)N1CCN(C(=O)c2cccc(-c3nc4cc(N)ccc4o3)c2)CC1 (stereo not drawn) has a reported pIC50 of 7.80

COC(=O)C(c1ccccc1)N1CCN(C(=O)c2cccc(-c3nc4cc(OC(F)(F)F)ccc4o3)c2)CC1 (stereo not drawn) has a reported pIC50 of 8.00

COc1ccc2nc(-c3cccc(C(=O)N4CCN(C5(c6ccccc6)CCN(C)C5=O)CC4)c3)sc2c1 (stereo not drawn) has a reported pIC50 of 5.40

O=C(c1cccc(-c2nc3cc(C(F)(F)F)ccc3o2)c1)N1CCN(C(c2ccccc2)c2nnco2)CC1 (stereo not drawn) has a reported pIC50 of 6.60

Cc1nnc([C@@H](c2ccccc2)N2CCN(C(=O)c3cc(-c4nc5cc(C(F)(F)F)ccc5o4)ccn3)CC2)o1 has a reported pIC50 of 7.50

COC(=O)C(c1ccccc1)N1CCN(C(=O)c2cc(-c3nc4ccc(OC)cc4s3)ccn2)CC1 (stereo not drawn) has a reported pIC50 of 8.00

COC(=O)C(c1ccccc1)N1CCN(C(=O)c2cc(-c3nc4cc(C(F)(F)F)ccc4o3)ccn2)CC1 (stereo not drawn) has a reported pIC50 of 7.80

COCCNC(=O)C(c1ccccc1)N1CCN(C(=O)c2cccc(-c3nc4ccc(OC)cc4s3)c2)CC1 (stereo not drawn) has a reported pIC50 of 7.10

Cc1nnc([C@@H](c2ccccc2)N2CCN(C(=O)c3cc(-c4nc5cc(OC(F)(F)F)ccc5o4)ccn3)CC2)o1 has a reported pIC50 of 8.10

---

- TARGET OF ASSAY: HA H1 A/California/07/09 (Influenza A virus (A/California/07/2009(H1N1)))
- ASSAY DETAILS: biochemical
- CONDITIONS USED: Competition binding (AlphaLISA), pIC50 H1 A/California/07/09
Assignment: determine reported IC50 for the given compounds.
Only the number, expressed in nM, is required.

Cc1nnc(C(c2ccccc2)N2CCN(C(=O)c3cccc(-c4nc5cc(Cl)ccc5o4)c3)CC2)o1 (stereo not shown) has a reported IC50 of 158

COC(=O)C(c1ccccc1)N1CCN(C(=O)c2cccc(NC(=O)c3ccc(OC)cc3)c2)CC1 (stereo not shown) has a reported IC50 of 200

COC(=O)C(c1ccccc1)N1CCN(C(=O)c2cccc(-c3nc4ccc(OC)cc4s3)n2)CC1 (stereo not shown) has a reported IC50 of 631

COC(=O)C(c1ccccc1)N1CCN(C(=O)c2cccc(-c3nc4ncccc4o3)c2)CC1 (stereo not shown) has a reported IC50 of 63.1

COC(=O)C(c1ccccc1)N1CCN(C(=O)c2cccc(-c3nc4cc(C(F)(F)F)ccc4o3)c2)CC1 (stereo not shown) has a reported IC50 of 39.8

Cc1nnc(C(c2ccccc2)N2CCN(C(=O)c3cccc(-c4nc5cc(F)ccc5o4)c3)CC2)o1 (stereo not shown) has a reported IC50 of 79.4

O=C(c1cccc(-c2nc3cc(C(F)(F)F)ccc3o2)c1)N1CCN(C(c2ccccc2)c2nnc(C3CNC3)o2)CC1 (stereo not shown) has a reported IC50 of 126

---

- TARGET OF ASSAY: HA H5 A/Vietnam/1203/04 (Influenza A virus (A/Vietnam/1203/2004(H5N1)), UniProt Q5EP31)
- ASSAY DETAILS: biochemical
- CONDITIONS USED: Competition binding (AlphaLISA), pIC50 H5 A/Vietnam/1203/04
ASSAY METRIC: IC50 (nM)
Only the number, expressed in nM, is required.

COc1ccc2nc(-c3cccc(C(=O)N4CCN(C(Cc5nnco5)c5ccccc5)CC4)c3)sc2c1 (stereo not shown) has a reported IC50 of 25100

CC(=O)Nc1ccc2oc(-c3cccc(C(=O)N4CCN(C(c5ccccc5)c5nnc(C)o5)CC4)c3)nc2c1 (stereo not shown) has a reported IC50 of 631

Cc1nnc(C(c2ccccc2)N2CCN(C(=O)c3cccc(-c4nc5cc(C(F)(F)F)ccc5o4)c3)CC2)o1 (stereo not shown) has a reported IC50 of 3160

Cc1nnc([C@@H](c2ccccc2)N2CCN(C(=O)c3cccc(-c4nc5cc(C(F)(F)F)ccc5o4)c3)CC2)o1 [Example 69] has a reported IC50 of 2510

---

- TARGET OF ASSAY: HA H1 A/New Caledonia/20/99 (Influenza A virus (A/New Caledonia/20/1999(H1N1)), UniProt Q6WG00)
- ASSAY DETAILS: biochemical
- CONDITIONS USED: Competition binding (AlphaLISA), pIC50 H1 A/New Caledonia/20/99
Assignment: determine reported IC50 for the given molecules.
Only the number, expressed in nM, is required.

Cc1nnc([C@@H](c2ccccc2)N2CCN(C(=O)c3cc(-c4nc5cc(C(F)(F)F)ccc5o4)ccc3F)CC2)o1 [Example 45] has a reported IC50 of 100

O=C(c1cccc(-c2nc3cc(C(F)(F)F)ccc3o2)c1)N1CCN(C(c2ccccc2)c2nnc(C3CNC3)o2)CC1 (stereo not drawn) [Example 92] has a reported IC50 of 79.4

COC(=O)[C@@H](c1ccccc1)N1CCN(C(=O)c2cccc(-c3nc4cc(OC)ccc4o3)c2)CC1 [Example 8] has a reported IC50 of 3.98

COC(=O)C(c1ccccc1)N1CCN(C(=O)C2CCCN(c3nc4ccc(OC)cc4s3)C2)CC1 (stereo not drawn) [Example 115] has a reported IC50 of 316

CNC(=O)c1cnc(-c2cccc(C(=O)N3CCN(C(C(=O)OC)c4ccccc4)CC3)c2)s1 (stereo not drawn) [Example 64] has a reported IC50 of 79.4

COc1ccc2nc(-c3cccc(C(=O)N4CCN(C(C(N)=O)c5ccccc5)CC4)c3)sc2c1 (stereo not drawn) [Example 84] has a reported IC50 of 200

Cc1nc([C@@H](c2ccccc2)N2CCN(C(=O)c3cc(-c4nc5cc(OC(F)(F)F)ccc5o4)ccn3)CC2)n[nH]1 [Example 134] has a reported IC50 of 15.8

COC(=O)C(c1ccccc1)N1CCN(C(=O)c2cccc(-c3nc4cc(C(F)(F)F)ccc4o3)c2)CC1 (stereo not drawn) [Example 42] has a reported IC50 of 39.8

COC(=O)C(c1ccccc1)N1CCN(C(=O)c2cccc(-c3nc4cc(OC5CC5)ccc4o3)c2)CC1 (stereo not drawn) [Example 1] has a reported IC50 of 0.631

Cc1nnc([C@@H](c2ccccc2)N2CCN(C(=O)c3cccc(-c4nc5cccc(C)c5o4)c3)CC2)o1 [Example 77] has a reported IC50 of 200

COc1ccc2nc(-c3cccc(C(=O)N4CCN(C(c5ccccc5)c5nncs5)CC4)c3)sc2c1 (stereo not drawn) [Example 56] has a reported IC50 of 158

COC(=O)C(c1ccccc1)N1CCN(C(=O)c2cccc(-c3nc4cc(N(C)C)ccc4o3)c2)CC1 (stereo not drawn) [Example 11] has a reported IC50 of 6.31

COc1ccc2nc(-c3cccc(C(=O)N4CCN(C(c5ccccc5)c5ncco5)CC4)c3)sc2c1 (stereo not drawn) [Example 74] has a reported IC50 of 79.4

COC(=O)C(c1ccccc1)N1CCN(C(=O)c2cccc(-c3ccc(OC)cc3)c2)CC1 (stereo not drawn) [Example 83] has a reported IC50 of 200

O=C(c1cccc(-c2nc3cc(C(F)(F)F)ccc3o2)c1)N1CCN(C(c2ccccc2)c2nnc(C3(O)CCC3)o2)CC1 (stereo not drawn) [Example 57] has a reported IC50 of 79.4
